protocol: Antiviral activity against subtype isolate C strain in PBLs (peripheral blood lymphocytes)
Type: functional, cell-based
experimental-setup: Homo sapiens
experimental-readout: IC50 (µM)
State just the number; it will be interpreted in µM.

molecule "COC(=O)CCCC=C(c1cc(Br)c(OC)c(C(=O)OC)c1)c1cc(Br)c(OC)c(C(=O)OC)c1" , IC50 observed: 0.31

Summary for this molecule, "COC(=O)CCCC=C(c1cc(Cl)c(OC)c(C(=O)OC)c1)c1cc(Cl)c(OC)c(C(=O)OC)c1" : IC50 is 0.41

Quick note, IC50 for "CCOC(=O)CCCC=C(c1cc(Br)c(OC)c(C(=O)OC)c1)c1cc(Br)c(OC)c(C(=O)OC)c1" landed at 0.15

The molecule "CCOC(=O)CCCC=C(c1cc(Cl)c(OC)c(C(=O)OC)c1)c1cc(Cl)c(OC)c(C(=O)OC)c1" showed IC50 equal to 0.82

###

protocol: Antiviral activity against multi drug resistant MDR 769 strain in PBLs (peripheral blood lymphocytes)
Type: ADME, cell-based
experimental-setup: human, read-out: TC50 (the source's name)
experimental-readout: CC50

Entry Cc1cn([C@H]2C[C@H](N=[N+]=[N-])[C@@H](CO)O2)c(=O)[nH]c1=O [ZIDOVUDINE] ; CC50 = > 172 µM

###

protocol: Antiviral activity against subtype isolate F strain in PBLs (peripheral blood lymphocytes)
Assay type: functional, cell-based, Homo sapiens
experimental-setup: Homo sapiens
experimental-readout: IC50 (nM)
# number only, unit nM dropped from output

The reported value for "CCOC(=O)CCCC=C(c1cc(Br)c(OC)c(C(=O)OC)c1)c1cc(Br)c(OC)c(C(=O)OC)c1" in terms of IC50 is 760

IC50 measured on "CCOC(=O)CCCC=C(c1cc(Cl)c(OC)c(C(=O)OC)c1)c1cc(Cl)c(OC)c(C(=O)OC)c1" = 300

For reference, reported IC50 for "COC(=O)CCCC=C(c1cc(Cl)c(OC)c(C(=O)OC)c1)c1cc(Cl)c(OC)c(C(=O)OC)c1" stands at 1300

###

Give measured IC50 for each item. Keep answers brief.

Value sought: IC50, system Human immunodeficiency virus type 1 reverse transcriptase (Human immunodeficiency virus 1), item "COC(=O)CCCC=C(c1cc(C)c(OC)c(C(=O)OC)c1)c1cc(C)c(OC)c(C(=O)OC)c1" . Result: < 1 µM

Record "COC(=O)c1cc(C(=CCCCc2ccccc2)c2cc(Cl)c(OC)c(C(=O)OC)c2)cc(Cl)c1OC" / Human immunodeficiency virus type 1 reverse transcriptase (Human immunodeficiency virus 1), IC50 recorded as > 100 µM

Observed IC50, Human immunodeficiency virus type 1 reverse transcriptase (Human immunodeficiency virus 1), "COC(=O)c1cc(C(=CCCCC(OC)OC)c2cc(Cl)c(OC)c(C(=O)OC)c2)cc(Cl)c1OC" : > 100 µM

Short answer on Human immunodeficiency virus type 1 reverse transcriptase (Human immunodeficiency virus 1) for "COC(=O)c1cc(C(=CCCCc2ccccc2)c2cc(Br)c(OC)c(C(=O)OC)c2)cc(Br)c1OC" , IC50: > 100 µM

IC50 of "CCNC(=O)NCCC=C(c1cc(Cl)c(OC)c(C(=O)OC)c1)c1cc(Cl)c(OC)c(C(=O)OC)c1" , assay on Human immunodeficiency virus type 1 reverse transcriptase (Human immunodeficiency virus 1), is > 100 µM

The reported measurements were obtained from ChEMBL document CHEMBL1134284.
